This collection of values is drawn from patent US20090018106A1.

- TEST_SUMMARY: Once daily intravenous 10 mg/kg P5P for four days, urinary excretion and renal clearance (Example Four)
- Format: in vivo, human
- APPLIED_CONDITIONS: human, urine and plasma, iv, 10 mg/kg, 10 mg/kg iv once daily, 4 days; Day 1; P5P uncorrected; mean; read-out: CLR, renal clearance (converted)
RECORDED_ENDPOINT: CL renal (mL/min)

> print(dat)
                                   molecule  recorded.endpoint  unit.of.measure     val
1  Cc1ncc(COP(=O)(O)O)c(C=O)c1O [P5P, Pyridoxal 5′-phosphate, reference compound]           CL renal           mL/min  0.0465
